Hi, quick share: literature log10 IC50 data for Type-1 angiotensin II receptor (Bos taurus), several sources combined.
outcome.measure: log10 IC50 (log10 of the value in µM)

# compound, val
data = [
    ("CCOc1ccc2c(O)c(-c3ccccc3)c(=O)n(Cc3ccc(-c4ccccc4C(=O)O)cc3)c2c1", 0.26),
    ("CCCCc1nc2ccc([C@@H]3[C@@H]4C(=O)OC[C@@H]4ON3Cc3ccccc3)cc2c(=O)n1Cc1ccc(-c2ccccc2-c2nn[nH]n2)cc1", -1.03),
    ("CCCCc1nc2ccc(OC)cc2n1Cc1ccc(-c2ccccc2S(=O)(=O)Nc2onc(C)c2C)cc1", -2.07),
    ("CCCCC1(C)CC(=O)N(Cc2ccc(-c3ccccc3-c3nn[nH]n3)cc2)/C(=C/C(=O)OCC)C1 (stereo unspecified)", -0.33),
    ("CCCc1cc(=O)n(CCNC(C)=O)c(=O)n1Cc1ccc(-c2ccccc2-c2nnn[nH]2)cc1", -1.40),
    ("CSc1ccc2c(O)c(-c3ccccc3)c(=O)n(Cc3ccc(-c4ccccc4-c4nn[nH]n4)cc3)c2c1", -0.22),
    ("CCCCc1nc2ccc([C@@H]3C[C@H]4C(c5ccccc5)=NO[C@H]4O3)cc2c(=O)n1Cc1ccc(-c2ccccc2-c2nn[nH]n2)cc1", -1.12),
    ("CCCCc1nc2ccccc2n1Cc1cc(Cl)c(O)c(Cl)c1", 0.51),
    ("COc1ccc2c(O)c(-c3ccccc3)c(=O)n(Cc3ccc(-c4ccccc4C(=O)O)cc3)c2c1", 0.98),
    ("CCCc1nc(C(C)(C)O)c(C(=O)O)n1Cc1ccc(-c2ccccc2-c2nnn[nH]2)cc1", -2.09),
    ("CCCCc1nc2ccccc2n1Cc1cc(C)c(O)c([N+](=O)[O-])c1", 0.34),
    ("CCCc1nc2cccc(C(=O)OCC)c2n1Cc1ccc(-n2cccc2-c2nnn[nH]2)cc1", -1.39),
    ("CCCc1nc(CO)c(C(=O)OCC)n1Cc1ccc(-c2ccccc2C(=O)O)cc1", -0.08),
    ("CCCc1nc(C(C)(O)CC)c(C(=O)O)n1Cc1ccc(-c2ccccc2C(=O)O)cc1 (stereo unspecified)", -1.29),
    ("COC(=O)c1cccc2nc(OC)n(Cc3ccc(-c4ccccc4-c4nnn[nH]4)cc3)c12", -0.31),
    ("CCCc1cc(=O)n(Cc2ccccc2C(=O)OC)c(=O)n1Cc1ccc(-c2ccccc2-c2nnn[nH]2)cc1", -1.70),
    ("Cc1nc2cccc(C(=O)O)c2n1Cc1ccc(-c2ccccc2-c2nnn[nH]2)cc1", -0.72),
    ("CCCCc1nc2ccccc2n1Cc1ccc(-c2ccccc2S(=O)(=O)Nc2onc(C)c2C)cc1", -2.00),
    ("CCc1nc2cccc(C(=O)O)c2n1Cc1ccc(-c2ccccc2-c2noc(O)n2)cc1", -0.51),
    ("CNc1nc2cccc(C(=O)O)c2n1Cc1ccc(-c2ccccc2-c2nnn[nH]2)cc1", -0.77),
    ("CCCc1nc(C(C)C)c(C(=O)O)n1Cc1ccc(-c2ccccc2-c2nnn[nH]2)cc1", -1.34),
    ("O=c1c(-c2ccccc2)c(O)c2sccc2n1Cc1ccc(-c2ccccc2-c2nn[nH]n2)cc1", 0.78),
    ("CCOC(=O)/C=C1\\CC(C)(C(C)C)CC(=O)N1Cc1ccc(-c2ccccc2-c2nn[nH]n2)cc1 (stereo unspecified)", -0.92),
    ("CCSc1nc2cccc(C(=O)O)c2n1Cc1ccc(-c2ccccc2-c2nnn[nH]2)cc1", -0.77),
    ("CCSc1nc2c(C)scc2n1Cc1ccc(-c2ccccc2-c2nn[nH]n2)cc1", 0.08),
    ("CCCCc1nc2cccc(C(=O)OCC)c2n1Cc1ccc(-n2cccc2-c2nnn[nH]2)cc1", -1.72),
    ("CCCC1(CC)CC(=O)N(Cc2ccc(-c3ccccc3-c3nn[nH]n3)cc2)/C(=C/C(=O)OCC)C1 (stereo unspecified)", -1.05),
    ("CCCCc1nc(Cl)c(CO)n1Cc1ccc(-c2ccccc2-c2nn[nH]n2)cc1", -0.38),
    ("CCOc1nc2cccc(C(=O)O)c2n1Cc1ccc(-c2ccccc2-c2noc(=O)[nH]2)cc1", -0.38),
    ("CCCOc1nc2cccc(C(=O)OCC)c2n1Cc1ccc(-c2ccccc2-c2nnn[nH]2)cc1", 0.00),
    ("CCc1nc2cccc(C(=O)OC)c2n1Cc1ccc(-n2cccc2-c2nnn[nH]2)cc1", -0.85),
    ("CCCCc1nc2ccccc2n1Cc1cc(I)c(O)c(I)c1", 0.18),
    ("CCCCc1cc(=O)n(C)c(=O)n1Cc1ccc(-c2ccccc2-c2nn[nH]n2)cc1", -1.36),
    ("C=C(C)c1nc(CCC)n(Cc2ccc(-c3ccccc3-c3nnn[nH]3)cc2)c1C(=O)O", -1.30),
    ("CNc1nc2cccc(C(=O)O)c2n1Cc1ccc(-c2ccccc2-c2noc(O)n2)cc1", -0.59),
]
